Species on record: Rattus norvegicus
Measurement description: Antidiabetic activity in albino rat diabetic model assessed as plasma glucose level measured after 3 hrs (reference value: 263 +/- 10.67 mg/dl)
Format: functional
Reported endpoint: Activity (mg/dL)
// units = mg/dL; emit number, no label

Past entries and their recorded results:
INSERT INTO assay_data (compound, reported_endpoint, measured_result) VALUES
  ('O=C1NC2(CC3CCC2C3)C(=O)N1S(=O)(=O)c1ccc2ccccc2c1 (stereo not drawn)', 'Activity', 393),
  ('O=C1NC2(CC3CCC2C3)C(=O)N1S(=O)(=O)c1ccc(Cl)cc1 (stereo not drawn)', 'Activity', 283),
  ('O=C1NC2(CC3CCC2C3)C(=O)N1S(=O)(=O)c1ccc(Br)cc1 (stereo not drawn)', 'Activity', 357);

Kindly indicate its recorded Activity. Item: O=C1NC2(CC3CCC2C3)C(=O)N1S(=O)(=O)c1ccc([N+](=O)[O-])cc1 (stereo not drawn)
482

Report measured Activity; entry is COc1ccc(Cl)cc1C(=O)NCCc1ccc(S(=O)(=O)NC(=O)NC2CCCCC2)cc1 [GLYBURIDE]
250

Output measured Activity for this item: Cc1ccc(S(=O)(=O)N2C(=O)NC3(CC4CCC3C4)C2=O)cc1 (stereo not drawn)
305

Indicate the recorded Activity value for this compound: COc1ccc(S(=O)(=O)N2C(=O)NC3(CC4CCC3C4)C2=O)cc1 (stereo not drawn)
544

Name the recorded Activity of the compound listed here: O=C1c2ccccc2C(=O)c2cc(S(=O)(=O)N3C(=O)NC4(CC5CCC4C5)C3=O)ccc21 (stereo not drawn)
338
